- test: Moulding process: time to stable tablets (consolidation/solidification time) and liquid amount after wetting the powder
- Format: physicochemical
- condition notes: solution: water
The molecules listed here are annotated with their Consolidation time.

Worked cases, Consolidation time given:
OC[C@H]1O[C@@H](O[C@H]2[C@H](O)[C@@H](O)[C@@H](O)O[C@@H]2CO)[C@H](O)[C@@H](O)[C@H]1O [Stable α-Lactose anhydrate] | 0.083 to 0.167 min
O=C([O-])CC(O)(CC(=O)[O-])C(=O)[O-].O=C([O-])CC(O)(CC(=O)[O-])C(=O)[O-].[Mg+2].[Mg+2].[Mg+2] [Mg Citrate anhydrate, anhydrous Mg Citrate] | 1 to 4 min

API: the following record is the query input.
Given the entry C[C@H](O)C(=O)[O-].C[C@H](O)C(=O)[O-].[Ca+2] [Ca-Lactate anhydrate, anhydrous Ca-Lactate] , report its measured Consolidation time.
1 to 2 min
